System: Bovine microcirculatory endothelial cells (BMEC)
measurement.protocol: Cytotoxicity test (sulforodamine B), BMEC
Assay type: cell-based
measurement.setup: Bos taurus, Endothelial cell, read-out: IC50 ± SE
Here, each record is paired with measured IC50 data.

Some entries whose results are on file:
[[record]]
smiles_structure = "COc1cc(/C=C\\c2cc(O)c3ccsc3c2)cc(OC)c1OC"
assay_value = "87 nM"

[[record]]
smiles_structure = "COc1ccc(/C=C\\c2cc(OC)c3occc3c2)cc1O"
assay_value = "35 nM"

[[record]]
smiles_structure = "COc1cc(/C=C\\c2cc(O)c3ccoc3c2)cc(OC)c1OC"
assay_value = "49 nM"

[[record]]
smiles_structure = "COc1ccc(/C=C\\c2cc(OC)c3ccoc3c2)cc1O"
assay_value = "35 nM"


Give the reported IC50 for COc1ccc(/C=C\c2cc(OC)c3ccsc3c2)cc1O (system: Bovine microcirculatory endothelial cells (BMEC)).
< 40 nM

Give the reported IC50 for COc1cc(/C=C\c2cc(OP(=O)(O)O)c3ccoc3c2)cc(OC)c1OC (system: Bovine microcirculatory endothelial cells (BMEC)).
340 nM

Data provenance is patent US20060160773A1.
